- study-target: Beta-lactamase (Escherichia coli (strain K12)) (UniProt P00811)
- Sequence (P00811 whole entry, looked up): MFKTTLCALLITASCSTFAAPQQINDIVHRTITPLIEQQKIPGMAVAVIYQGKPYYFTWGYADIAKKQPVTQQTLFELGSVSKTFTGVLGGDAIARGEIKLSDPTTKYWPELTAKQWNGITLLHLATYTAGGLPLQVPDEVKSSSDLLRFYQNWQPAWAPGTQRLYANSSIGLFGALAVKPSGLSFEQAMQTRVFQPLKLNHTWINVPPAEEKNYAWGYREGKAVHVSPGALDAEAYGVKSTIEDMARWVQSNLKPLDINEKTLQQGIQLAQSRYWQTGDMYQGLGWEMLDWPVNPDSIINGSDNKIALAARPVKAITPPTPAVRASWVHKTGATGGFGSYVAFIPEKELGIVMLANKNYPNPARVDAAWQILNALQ
- test-summary: qHTS Inhibitors of AmpC Beta-Lactamase (assay without detergent); note: nearly all actives have a fitted effect of over 20% in size
- experimental-setup: AmpC nitrocefin hydrolysis, absorbance 480 nm, 0.0001% Triton; series mostly up to 57.1 µM
The campaign covered roughly 330,000 compounds. About 1,700 (0.52%) were called active. Calls come from the whole dose curve; as a rule, active = well fitted inhibition curve with a large enough effect; inconclusive = small, poorly fitted or top-dose-only effect; inactive = no such curve, though single readings can be large or run the other way. The list comes from a sample in which actives are over-represented; it also holds close analogues and randomly drawn compounds.
Your reply should match one of these outcome classes. active, inactive

O=C(CN1C(=O)/C(=C\c2ccccc2F)SC1=S)Nc1nc2ccccc2s1    inactive
Cc1c(NC(=O)CN2C(=O)C(=O)N(Cc3ccccc3)C2=O)c(=O)n(-c2ccccc2)n1C    inactive
CC/C(C)=N/Nc1nc2sc3c(c2c(=O)[nH]1)CC(C)(C)OC3    active

What call does the record list for `CCC[C@H]1CCCC/C=C\CCCC(=O)OCCN1C(=O)OC(C)(C)C` ?
inactive

Here is the next molecule: `O=C1/C(=C\c2ccccc2Cl)SC(=S)N1CCC(=O)N1CCCc2ccccc21`
inactive

Here is the next molecule: `COc1ccc(OCCCC(=O)Nc2cccc(S(=O)(=O)N3CCCCCC3)c2)cc1`
inactive

Here is the next molecule: `Cn1c(=O)c2c(SCC(=O)N3CCOCC3)nc(C3CC3)nc2n(C)c1=O`
active

Here is the next molecule: `O=C(CCCN1C(=O)/C(=C/c2cccs2)SC1=S)Nc1ccc(O)cc1`
inactive

Here is the next molecule: COC(=O)CCC(=O)N1CCCC(CO)(Cc2ccccc2)C1 (configuration not stated)
inactive

Here is the next molecule: `CCCc1nc(SCC(=O)N2CCCC2)c2c(=O)n(C)c(=O)n(C)c2n1`
inactive

Here is the next molecule: `NS(=O)(=O)c1ccc(CNC(=O)c2cccc(S(=O)(=O)N3CCc4ccccc43)c2)cc1`
active

Here is the next molecule: `O=C(CCCN1C(=O)/C(=C\c2ccco2)SC1=S)Nc1cccc2ccccc12`
active

Here is the next molecule: CN(CCC1CCOCC1)C(=O)CC1C(=O)NCCN1Cc1cccc(F)c1 (configuration not stated)
inactive
